Measured target: T1, human GPC3-His protein (human, UniProt P51654 25-559)
T1 construct: also called human GPC3 protein; not shown: His tag
Procedure text: SPR, antibody captured on Protein A chip, human GPC3-His analyte;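 also: measured at 25 °C flow cell, human GPC3-His injected at five concentrations up to 200 nM, 240 s association, up to 600 s dissociation, double-referenced, fitted to Langmuir 1:1 model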

{"Binder": "F2.39.2 (antibody, human IgG1, kappa, V domains shown, Human-murine chimeric antibody) VH: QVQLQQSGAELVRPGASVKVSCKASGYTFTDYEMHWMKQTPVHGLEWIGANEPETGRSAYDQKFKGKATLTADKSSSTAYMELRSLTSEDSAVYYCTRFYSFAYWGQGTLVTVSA VL: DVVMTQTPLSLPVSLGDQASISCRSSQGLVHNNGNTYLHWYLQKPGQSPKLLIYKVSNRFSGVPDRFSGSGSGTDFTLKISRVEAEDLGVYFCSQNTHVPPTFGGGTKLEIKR", "koff (s⁻¹)": 0.0021}
{"Binder": "F1.41.17 (antibody, human IgG1, kappa, V domains shown, Human-murine chimeric antibody) VH: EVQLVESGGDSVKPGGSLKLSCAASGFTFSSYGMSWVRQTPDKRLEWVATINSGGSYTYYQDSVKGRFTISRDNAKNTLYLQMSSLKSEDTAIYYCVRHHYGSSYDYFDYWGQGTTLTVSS VL: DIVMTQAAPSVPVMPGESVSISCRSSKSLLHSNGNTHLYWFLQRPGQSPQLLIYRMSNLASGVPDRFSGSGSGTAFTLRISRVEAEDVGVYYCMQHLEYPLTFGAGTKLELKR", "koff (s⁻¹)": 0.0021}
{"Binder": "F1.2.14 (antibody, human IgG1, kappa, V domains shown, Human-murine chimeric antibody) VH: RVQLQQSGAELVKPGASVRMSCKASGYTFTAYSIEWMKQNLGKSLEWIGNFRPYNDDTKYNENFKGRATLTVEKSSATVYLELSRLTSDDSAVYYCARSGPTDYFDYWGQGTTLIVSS VL: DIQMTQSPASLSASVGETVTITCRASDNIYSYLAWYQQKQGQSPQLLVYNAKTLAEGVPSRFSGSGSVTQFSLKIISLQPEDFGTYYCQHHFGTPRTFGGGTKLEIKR", "koff (s⁻¹)": 0.00017}
{"Binder": "F1.57.21 (antibody, human IgG1, kappa, V domains shown, Human-murine chimeric antibody) VH: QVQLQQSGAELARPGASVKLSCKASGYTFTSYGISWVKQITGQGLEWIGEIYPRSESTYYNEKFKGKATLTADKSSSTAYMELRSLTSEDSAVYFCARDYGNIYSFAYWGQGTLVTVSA VL: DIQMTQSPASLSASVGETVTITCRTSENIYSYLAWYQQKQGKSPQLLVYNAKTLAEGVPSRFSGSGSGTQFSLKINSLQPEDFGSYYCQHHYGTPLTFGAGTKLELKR", "koff (s⁻¹)": 0.00278}
{"Binder": "F3.54.12 (antibody, human IgG1, kappa, V domains shown, Human-murine chimeric antibody) VH: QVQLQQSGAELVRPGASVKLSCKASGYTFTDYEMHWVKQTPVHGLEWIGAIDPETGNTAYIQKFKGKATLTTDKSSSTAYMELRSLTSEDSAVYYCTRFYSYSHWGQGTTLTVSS VL: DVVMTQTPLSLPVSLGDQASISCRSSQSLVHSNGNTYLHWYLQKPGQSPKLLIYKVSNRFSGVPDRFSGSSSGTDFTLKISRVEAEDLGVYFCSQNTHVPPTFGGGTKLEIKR", "koff (s⁻¹)": 0.00112}
{"Binder": "F1.153.1 (antibody, human IgG1, kappa, V domains shown, Human-murine chimeric antibody) VH: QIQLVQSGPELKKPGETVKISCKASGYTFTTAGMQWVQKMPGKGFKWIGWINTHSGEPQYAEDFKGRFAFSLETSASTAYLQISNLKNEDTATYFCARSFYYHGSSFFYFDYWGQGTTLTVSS VL: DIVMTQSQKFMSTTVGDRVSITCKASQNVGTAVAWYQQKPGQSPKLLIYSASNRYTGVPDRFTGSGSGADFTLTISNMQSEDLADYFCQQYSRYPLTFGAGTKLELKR", "koff (s⁻¹)": "6.22e-05"}
{"Binder": "F3.38.7 (antibody, human IgG1, kappa, V domains shown, Human-murine chimeric antibody) VH: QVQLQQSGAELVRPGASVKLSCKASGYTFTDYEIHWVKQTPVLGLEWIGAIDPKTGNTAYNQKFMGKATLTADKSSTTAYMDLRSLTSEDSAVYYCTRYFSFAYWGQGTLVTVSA VL: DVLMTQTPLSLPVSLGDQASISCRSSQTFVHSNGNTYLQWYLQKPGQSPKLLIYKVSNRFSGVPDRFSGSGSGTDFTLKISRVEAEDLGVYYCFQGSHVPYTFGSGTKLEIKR", "koff (s⁻¹)": 0.000361}
{"Binder": "F1.21.8 (antibody, human IgG1, kappa, V domains shown, Human-murine chimeric antibody) VH: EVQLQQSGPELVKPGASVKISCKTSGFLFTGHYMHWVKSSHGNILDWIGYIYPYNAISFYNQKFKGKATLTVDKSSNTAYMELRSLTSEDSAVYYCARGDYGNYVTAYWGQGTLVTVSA VL: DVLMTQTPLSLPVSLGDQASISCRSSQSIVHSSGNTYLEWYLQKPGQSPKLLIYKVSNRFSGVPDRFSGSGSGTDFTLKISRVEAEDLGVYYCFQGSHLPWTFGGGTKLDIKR", "koff (s⁻¹)": "6.91e-05"}
